- Experimental target: KRAS G13D (Homo sapiens, UniProt P01116+P62937, G13D)
- Sequence (P01116 1-169 isoform P01116-2 G13D limits assumed): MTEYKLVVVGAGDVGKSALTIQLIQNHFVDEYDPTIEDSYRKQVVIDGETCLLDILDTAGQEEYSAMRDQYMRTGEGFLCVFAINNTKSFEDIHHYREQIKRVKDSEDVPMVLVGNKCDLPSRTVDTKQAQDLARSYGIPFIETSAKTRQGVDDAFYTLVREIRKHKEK
- Sequence (P62937 whole entry): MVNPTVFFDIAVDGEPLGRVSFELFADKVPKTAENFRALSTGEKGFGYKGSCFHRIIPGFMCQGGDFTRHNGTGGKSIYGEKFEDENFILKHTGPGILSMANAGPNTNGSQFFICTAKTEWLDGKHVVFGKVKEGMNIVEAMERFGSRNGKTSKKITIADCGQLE
- Protocol: Ras-Raf disruption/FRET/MOA assay, KRAS G13D
- Format: biochemical
- Test context: disruption of BRAF RBD binding, with Cyclophilin A; read-out: KRAS G13D FRET IC50
pIC50: −log10 of the molar value.
For each entry below, report its pIC50 value.

In the examples that follow, each entry is paired with its recorded pIC50.
>  <Compound>
CCn1c(-c2cccnc2[C@H](C)OC)c2c3cc(ccc31)-c1cc(O)cc(c1)C[C@H](NC(=O)[C@H](C(C)C)N1CC[C@@]3(CCN(C[C@H]4CN4)C3)C1=O)C(=O)N1CCC[C@H](N1)C(=O)OCC(C)(C)C2 (single isomer, unassigned) [Example 139]

>  <Endpoint value>
7.00 to 8.00

$$$$
>  <Compound>
CCn1c(-c2cnccc2COC)c2c3cc(ccc31)-c1cc(O)cc(c1)C[C@H](NC(=O)[C@H](C(C)C)N(C)C(=O)CN(C)C(=O)[C@@H]1[C@H](C3CC3)N1[S@@+]([O-])C(C)(C)C)C(=O)N1CCC[C@H](N1)C(=O)OCC(C)(C)C2 (some centres unmarked)

>  <Endpoint value>
6.00 to 7.00

$$$$
>  <Compound>
CCn1c(-c2cccnc2[C@H](C)OC)c2c3cc(ccc31)-c1csc(n1)C[C@H](NC(=O)[C@H](C1CCCC1)N1CC[C@]3(CCN(C(=O)[C@@H]4N[C@@H]4C4CC4)C3)C1=O)C(=O)N1CCC[C@H](N1)C(=O)OCC(C)(C)C2

>  <Endpoint value>
< 5.00

$$$$
>  <Compound>
CCn1c(-c2cccnc2[C@H](C)OC)c2c3cc(ccc31)-c1cc(O)cc(c1)C[C@H](NC(=O)[C@H](C(C)C)N1CC[C@@]3(CCN(C[C@H]4CN4)C3)C1=O)C(=O)N1CCC[C@H](N1)C(=O)OCC(C)(C)C2 [Compound 193]

>  <Endpoint value>
7.00 to 8.00

$$$$

Fill in pIC50 for each of the 2 compounds listed.
1. CCn1c(-c2cnccc2COC)c2c3cc(ccc31)-c1cc(O)cc(c1)C[C@H](NC(=O)[C@H](C(C)C)N(C)C(=O)CN(C)C(=O)[C@H]1[C@@H](C3CC3)N1[S@+]([O-])C(C)(C)C)C(=O)N1CCC[C@H](N1)C(=O)OCC(C)(C)C2 (some centres unmarked)
2. CCn1c(-c2cccnc2[C@H](C)OC)c2c3cc(ccc31)-c1cc(cc(C(F)F)c1)C[C@H](NC(=O)[C@H](C1CCCC1)N1CC[C@]3(CCN(C(=O)[C@H]4CN4)C3)C1=O)C(=O)N1CCC[C@H](N1)C(=O)OCC(C)(C)C2

1: 6.00 to 7.00; 2: 5.00 to 6.00

Fill in pIC50 for each of the 2 compounds listed.
1. CCn1c(-c2cnccc2COC)c2c3cc(ccc31)-c1cc(O)cc(c1)C[C@H](NC(=O)[C@H](C(C)C)N(C)C(=O)CN(C)C(=O)[C@H]1CN1C(C)=O)C(=O)N1CCC[C@H](N1)C(=O)OCC(C)(C)C2
2. CCn1c(-c2cccnc2[C@H](C)OC)c2c3cc(ccc31)-c1cc(O)cc(c1)C[C@H](NC(=O)[C@H](C(C)C)N1CCC3(CCN(C(=O)[C@H]4CN4)CC3)C1=O)C(=O)N1CCC[C@H](N1)C(=O)OCC(C)(C)C2

6.00 to 7.00
7.00 to 8.00

---

- Experimental target: KRAS G12D (Homo sapiens, UniProt P01116+P62937, G12D)
- Sequence (P01116 1-169 isoform P01116-2 G12D limits assumed): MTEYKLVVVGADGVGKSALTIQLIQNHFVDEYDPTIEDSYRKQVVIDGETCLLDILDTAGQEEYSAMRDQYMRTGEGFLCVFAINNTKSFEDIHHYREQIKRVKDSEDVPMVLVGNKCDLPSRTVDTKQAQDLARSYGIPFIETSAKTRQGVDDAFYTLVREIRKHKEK
- Sequence (P62937 whole entry): as the sequence (P62937 whole entry) above
- Protocol: Ras-Raf disruption/FRET/MOA assay, KRAS G12D
- Assay type: biochemical
- Test context: disruption of BRAF RBD binding, with Cyclophilin A; read-out: KRAS G12D FRET IC50
For each entry below, report its IC50 value.

In the examples that follow, each entry is paired with its recorded IC50.
>  <Compound>
CCn1c(-c2cnccc2COC)c2c3cc(ccc31)-c1cc(O)cc(c1)C[C@H](NC(=O)[C@H](C(C)C)N(C)C(=O)CN(C)C(=O)C1CN1C(C)=O)C(=O)N1CCC[C@H](N1)C(=O)OCC(C)(C)C2 (stereo partly shown)

>  <Experimental target>
KRAS G12D (Homo sapiens, UniProt P01116+P62937, G12D)

>  <IC50>
0.1 to 1 µM

$$$$
>  <Compound>
CCn1c(-c2cnccc2COC)c2c3cc(ccc31)-c1cc(O)cc(c1)C[C@H](NC(=O)[C@H](C(C)C)N(C)C(=O)CN(C)C(=O)[C@@H]1[C@H](C3CC3)N1[S@@+]([O-])C(C)(C)C)C(=O)N1CCC[C@H](N1)C(=O)OCC(C)(C)C2 (stereo partly shown)

>  <Experimental target>
KRAS G12D (Homo sapiens, UniProt P01116+P62937, G12D)

>  <IC50>
0.1 to 1 µM

$$$$
>  <Compound>
CCn1c(-c2cccnc2[C@H](C)OC)c2c3cc(ccc31)-c1cc(cc(C(F)F)c1)C[C@H](NC(=O)[C@H](C1CCCC1)N1CC[C@]3(CCN(C(=O)[C@@H]4N[C@@H]4C4CC4)C3)C1=O)C(=O)N1CCC[C@H](N1)C(=O)OCC(C)(C)C2

>  <Experimental target>
KRAS G12D (Homo sapiens, UniProt P01116+P62937, G12D)

>  <IC50>
1 to 10 µM

$$$$

Turning to the following compound.
Look up IC50 of CCn1c(-c2cnccc2COC)c2c3cc(ccc31)-c1cc(O)cc(c1)C[C@H](NC(=O)[C@H](C(C)C)N(C)C(=O)CN(C)C(=O)[C@H]1CN1C(=O)OC)C(=O)N1CCC[C@H](N1)C(=O)OCC(C)(C)C2 and report it.
0.1 to 1 µM

---

For each entry below, report its IC50 value.
- Experimental target: KRAS G13D (Homo sapiens, UniProt P01116+P62937, G13D)
- Protocol: Ras-Raf disruption/FRET/MOA assay, KRAS G13D
- Type: biochemical

In the examples that follow, each entry is paired with its recorded IC50.
>  <Compound>
CCC(C)N(C)C(=O)c1cncc(-c2c3c4cc(ccc4n2CC)-c2cc(O)cc(c2)C[C@H](NC(=O)[C@H](C(C)C)N(C)C(=O)CN(C)C(=O)[C@H]2CN2)C(=O)N2CCC[C@H](N2)C(=O)OCC(C)(C)C3)c1 (stereo partly shown)

>  <Endpoint value>
100 to 1000 nM

$$$$
>  <Compound>
CCn1c(-c2cnccc2COC)c2c3cc(ccc31)-c1cc(O)cc(c1)C[C@H](NC(=O)[C@H](C(C)C)N(C)C(=O)CN(C)C(=O)[C@@H]1CN1)C(=O)N1CCC[C@H](N1)C(=O)OCC(C)(C)C2

>  <Endpoint value>
100 to 1000 nM

$$$$
>  <Compound>
CCn1c(-c2cccnc2[C@H](C)OC)c2c3cc(ccc31)-c1cc(O)cc(c1)C[C@H](NC(=O)[C@H](C(C)C)N(C)C(=O)CN(C)C(=O)[C@H]1N[C@H]1C1CC1)C(=O)N1CCC[C@H](N1)C(=O)OCC(C)(C)C2

>  <Endpoint value>
100 to 1000 nM

$$$$
>  <Compound>
CCn1c(-c2cnccc2COC)c2c3cc(ccc31)-c1cc(O)cc(c1)C[C@H](NC(=O)[C@H](C(C)C)N(C)C(=O)CN(C)C(=O)[C@@H]1N[C@@H]1c1ccccc1)C(=O)N1CCC[C@H](N1)C(=O)OCC(C)(C)C2

>  <Endpoint value>
100 to 1000 nM

$$$$
>  <Compound>
CCn1c(-c2cnccc2COC)c2c3cc(ccc31)-c1cc(O)cc(c1)C[C@H](NC(=O)[C@H](C(C)C)N(C)C(=O)CN(C)C(=O)[C@H]1CN1Cc1ccccc1)C(=O)N1CCC[C@H](N1)C(=O)OCC(C)(C)C2 (stereo partly shown)

>  <Endpoint value>
100 to 1000 nM

$$$$

Fill in IC50 for each of the 4 compounds listed.
1. CCn1c(-c2cnccc2COC)c2c3cc(ccc31)-c1cc(O)cc(c1)C[C@H](NC(=O)[C@H](C(C)C)N(C)C(=O)CN(C)C(=O)[C@H]1N[C@H]1c1ccccc1)C(=O)N1CCC[C@H](N1)C(=O)OCC(C)(C)C2
2. CCn1c(-c2cnccc2COC)c2c3cc(ccc31)-c1cc(O)cc(c1)C[C@H](NC(=O)[C@H](C(C)C)N(C)C(=O)CN(C)C(=O)[C@@H]1CN1Cc1ccccc1)C(=O)N1CCC[C@H](N1)C(=O)OCC(C)(C)C2 (stereo partly shown)
3. CCn1c(-c2cccnc2[C@H](C)OC)c2c3cc(ccc31)-c1cc(O)cc(c1)C[C@H](NC(=O)[C@H](C(C)C)N(C)C(=O)CN(C)C(=O)[C@@H]1CN1)C(=O)N1CCC[C@H](N1)C(=O)OCC(C)(C)C2
4. CCn1c(-c2cnccc2COC)c2c3cc(ccc31)-c1cc(O)cc(c1)C[C@H](NC(=O)[C@H](C(C)C)N(C)C(=O)CN(C)C(=O)[C@H]1CN1)C(=O)N1CCC[C@H](N1)C(=O)OCC(C)(C)C2

["100 to 1000 nM", "1000 to 10000 nM", "10 to 100 nM", "100 to 1000 nM"]

Look up IC50 of CCn1c(-c2cnccc2COC)c2c3cc(ccc31)-c1cc(O)cc(c1)C[C@H](NC(=O)[C@H](C(C)C)N(C)C(=O)CN(C)C(=O)C1CN1)C(=O)N1CCC[C@H](N1)C(=O)OCC(C)(C)C2 (stereo partly shown) and report it.
100 to 1000 nM
